Cited source: PubChem BioAssay (NCI)

Test system: SNB-75 CNS
assay method text: NCI tumour cell line growth inhibition, 48 h
Below, each entry is listed with its recorded TGI.

- compound: "C/C(=N\\O)c1ccc(Nc2c3ccccc3nc3occc23)cc1"
  target: "SNB-75 CNS"
  unit string: "µM"
  comparison sign: "="
  TGI: 3.78
- compound: "CC1=CC(c2ccccc2)n2c(nc3cc4ccccc4cc32)N1 (stereo unspecified)"
  target: "SNB-75 CNS"
  unit string: "µM"
  comparison sign: ">"
  TGI: 100
- compound: "CN(C)c1ccc(Sc2ccc3nc(N)nc(N)c3c2)cc1"
  target: "SNB-75 CNS"
  unit string: "µM"
  comparison sign: "="
  TGI: 16.3
- compound: "COC(=O)CNC(=O)/C=C/[C@H](O[Si](C)(C)C(C)(C)C)[C@H](/C=C/C(=O)NCC(=O)OC)O[Si](C)(C)C(C)(C)C"
  target: "SNB-75 CNS"
  unit string: "µM"
  comparison sign: ">"
  TGI: 25
- compound: "COC(=O)C1CCC(=NC2c3ccccc3-c3ccccc32)N1 (stereo unspecified)"
  target: "SNB-75 CNS"
  unit string: "µM"
  comparison sign: ">"
  TGI: 100
- compound: "COc1cccc(N2N=C3c4ccccc4-n4c(nc5ccccc54)C3C2N)c1 (stereo unspecified)"
  target: "SNB-75 CNS"
  unit string: "µM"
  comparison sign: ">"
  TGI: 100
- compound: "C/C(=N/Nc1ccc([N+](=O)[O-])cc1[N+](=O)[O-])C(CC(C(=O)Nc1ccccc1C)/C(C)=N\\Nc1ccc([N+](=O)[O-])cc1[N+](=O)[O-])C(=O)Nc1ccccc1C (stereo unspecified)"
  target: "SNB-75 CNS"
  unit string: "µM"
  comparison sign: "="
  TGI: 29.4
- compound: "CCCCC(=C=C1CCCCC1O)C1CCCN1C(=O)OC(C)(C)C (stereo unspecified)"
  target: "SNB-75 CNS"
  unit string: "µM"
  comparison sign: "="
  TGI: 26.7
- compound: "CCNC(=O)Oc1ccc(/C(=C(\\C)c2ccc(Cl)cc2)c2ccc(OCCN3CCCCC3)cc2)cc1"
  target: "SNB-75 CNS"
  unit string: "µM"
  comparison sign: "="
  TGI: 18.6
- compound: "COC(=O)c1cc2c3c(c(C(C)=O)c(OC)c2[nH]1)NCC3"
  target: "SNB-75 CNS"
  unit string: "µM"
  comparison sign: ">"
  TGI: 50
- compound: "Fc1nc(F)nc(-c2c3ccccc3c3n2CCS3)n1"
  target: "SNB-75 CNS"
  unit string: "µM"
  comparison sign: ">"
  TGI: 100

* * *

System: SK-MEL-2 melanoma
assay method text: NCI tumour cell line growth inhibition, 48 h; in the data active = GI50 below about 0.43 µM; inactive = the rest
Where a SMILES comes first, the peptide text is derived from it. The star is where a group is joined. Palmitoyl = CCCCCCCCCCCCCCCC(=O)*
Possible outcomes: yes (active), no (inactive)

- compound: "CCNC(=O)Oc1ccc(/C(=C(\\C)c2ccc(Cl)cc2)c2ccc(OCCN3CCCCC3)cc2)cc1"
  label class: "no"
- compound: "O=c1[nH]c(-c2ccccn2)nc2sc3c(c12)CCCCCC3"
  label class: "no"
- compound: "CN(C)c1ccc(Sc2ccc3nc(N)nc(N)c3c2)cc1"
  label class: "no"
- compound: "CN1CCN(C(=S)SCN2C(=O)c3ccccc3S2(=O)=O)CC1"
  label class: "no"
- compound: "O=[N+]([O-])c1cccc(-c2ncc(-c3ccc(Cl)cc3Cl)[nH]2)c1"
  label class: "no"
- compound: "CCCCCCCCCCCCCCCC(=O)NC(CCCCN)C(=O)NCC(=O)NC(Cc1ccccc1)C(=O)N1CCCC1C(=O)NC(CO)C(=O)NC(Cc1ccc(O)cc1)C(=O)NC(CCCCN)C(=O)NC(CC(C)C)C(=O)NC(CCCN=C(N)N)C(=O)N1CCCC1C(=O)NCC(N)=O (stereo not drawn) (Palmitoyl-KGFPSYKLRPG-NH2; configuration not given here)"
  label class: "no"
- compound: "OCCCCC#Cc1ccccc1C#Cc1cnccn1"
  label class: "no"
- compound: "CC(=O)N[C@@H]1CCC[C@H](C(=O)Nc2cc(-c3cnn4c3CC(C)(C)C4)c(Cl)cn2)C1"
  label class: "yes"

* * *

System: ACHN renal
assay method text: NCI tumour cell line growth inhibition, 48 h; in the data active = GI50 below about 0.43 µM; inactive = the rest
Possible outcomes: active, inactive

- structure as smiles: "O=C(CN=Cc1cccs1)CSC(c1ccccc1)c1ccccc1"
  label class: "inactive"
- structure as smiles: "O=[N+]([O-])c1cccc(-c2ncc(-c3ccc(Cl)cc3Cl)[nH]2)c1"
  label class: "inactive"
- structure as smiles: "C#Cc1cccc(Nc2ncnc3ccc(-c4cncc(NS(C)(=O)=O)c4)cc23)c1"
  label class: "inactive"
- structure as smiles: "CC(=O)N[C@@H]1CCC[C@H](C(=O)Nc2cc(-c3cnn4c3CC(C)(C)C4)c(Cl)cn2)C1"
  label class: "active"
- structure as smiles: "O=C1/C(=C/c2ccccc2)CN(C(=O)Oc2ccc([N+](=O)[O-])cc2)C/C1=C\\c1ccccc1"
  label class: "inactive"

* * *

System: A549 NSCLC
assay method text: NCI tumour cell line growth inhibition, 48 h; in the data active means GI50 below about 0.43 µM; inactive means the rest
Possible outcomes: label 1 for active, label 0 for inactive

- molecule: "CCCCCCCCCCCCNC(=O)[C@H]1CSC(c2ccc(OC)c(F)c2)N1 (some centres undefined)"
  label class: "label 0"
- molecule: "C#Cc1ccc(-n2c(/C=C/c3cc(OC)c(OC)c(OC)c3)nc3ncccc3c2=O)cc1"
  label class: "label 0"
- molecule: "CC(=O)N[C@@H]1CCC[C@H](C(=O)Nc2cc(-c3cnn4c3CC(C)(C)C4)c(Cl)cn2)C1"
  label class: "label 1"
- molecule: "COc1cc(C2c3cc4c(cc3[C@@H](Nc3cccc(O)c3)C3COC(=O)[C@H]23)OCO4)cc(OC)c1O (some centres undefined)"
  label class: "label 0"
- molecule: "CCCCCCN1C(=O)CN=C1Nc1ccc2cc3ccc(NC4=NCC(=O)N4CCCCCC)cc3nc2c1"
  label class: "label 0"
- molecule: "CCOC(=O)C1=C(c2ccccc2)N(Cc2ccccc2)C2(O)C=CC(=O)C3C(=O)N(c4ccccc4)C(=O)C132 (centres undefined)"
  label class: "label 0"
- molecule: "Cc1cc2c(cc1Cl)SC1=NN(C)C(c3ccccc3O)N1S2(=O)=O (centres undefined)"
  label class: "label 0"
- molecule: "O=c1[nH]c(-c2ccccn2)nc2sc3c(c12)CCCCCC3"
  label class: "label 0"
- molecule: "COc1ccc(N(Cc2cc(OC)c(OC)c(OC)c2)C2OC(=O)c3ccccc32)cc1 (centres undefined)"
  label class: "label 0"
- molecule: "CC[C@@]1(O)C(=O)OCc2c1cc1n(c2=O)Cc2cc3c(NC(C)=O)c(O)ccc3nc2-1"
  label class: "label 0"
- molecule: "CCOC(=O)Cc1csc(NC(=O)C(OC(=O)c2ccc(N)cc2)c2ccccc2)n1 (centres undefined)"
  label class: "label 0"
- molecule: "C=CC[PH+](c1ccccc1)c1ccccc1.C=CC[PH+](c1ccccc1)c1ccccc1.[Cl][Pt][Cl]"
  label class: "label 0"
- molecule: "CC1(C)CC2(C)OC2C2(C1)N=NC(=Nc1ccccc1)O2 (centres undefined)"
  label class: "label 0"
- molecule: "N#Cc1ccc(N2Cc3cc(Cl)ccc3OC3=C2C(=O)N(Cc2ccccc2)C3=O)cc1"
  label class: "label 0"

* * *

System: MDA-MB-231 breast
assay method text: NCI tumour cell line growth inhibition, 48 h
Quick rule for you: TGI at 20 µM or higher means true (1), lower means false (0).

- molecule: "CC(C)C[C@H](NC(=O)[C@@H](O)[C@H](N)Cc1ccccc1)C(=O)O"
  label class: "true (1)"
- molecule: "O=C(O)c1ccccc1-c1ccccc1C(=O)c1ccccc1"
  label class: "true (1)"
- molecule: "CC(C)(C)NCCC(O)c1cc(C(F)(F)F)nc2c(C(F)(F)F)cccc12 (centres undefined)"
  label class: "true (1)"
- molecule: "CC(C)CC1c2[nH]c3ccccc3c2C[C@H]2C(=O)NC(COC(C)(C)C)C(=O)N12 (some centres undefined)"
  label class: "true (1)"
- molecule: "C#Cc1cccc(Nc2ncnc3ccc(-c4cncc(NS(C)(=O)=O)c4)cc23)c1"
  label class: "false (0)"
- molecule: "CC(=O)Nc1ccc(-n2cnc3cc(-c4ccc(OCCN5CCCCC5)cc4)ccc32)cc1"
  label class: "false (0)"
- molecule: "CCN(CC)CCOc1ccc(C2=C(c3ccccc3)CCc3cc(OC)ccc32)cc1"
  label class: "false (0)"
- molecule: "Cn1cc(-c2nn3cc(-c4cccs4)nc3s2)c2cc(F)ccc21"
  label class: "true (1)"
- molecule: "CCOc1cc(C=O)ccc1O"
  label class: "true (1)"
- molecule: "COc1cc(C2c3cc4c(cc3[C@@H](Nc3cccc(O)c3)C3COC(=O)[C@H]23)OCO4)cc(OC)c1O (some centres undefined)"
  label class: "true (1)"
- molecule: "COc1ccc([C@@]23CCC(=O)C[C@@H]2N(C)CC3)cc1OC"
  label class: "true (1)"
- molecule: "C/C=C\\C(CC(=O)O)CC(=O)NCCC1CN(S(=O)(=O)C(F)(F)F)c2ccccc21 (centres undefined)"
  label class: "true (1)"
- molecule: "c1ccc(C/C(=N\\Nc2nc3ccccc3o2)c2ccccn2)cc1"
  label class: "false (0)"
- molecule: "CN1C/C(=C\\c2ccccc2[N+](=O)[O-])C(=O)/C(=C/c2ccccc2[N+](=O)[O-])C1"
  label class: "false (0)"
- molecule: "COc1ccc(C=O)cc1Oc1ccc(C[C@H]2c3c(cc(OC)c4c3Oc3cc5c(cc3O4)CCN(C)C5=O)CCN2C)cc1"
  label class: "false (0)"
- molecule: "CCOC(=O)C(Cc1c(-c2[nH]c3ccccc3c2CC(NC(=O)CNC(C)=O)C(=O)OCC)[nH]c2ccccc12)NC(=O)CNC(C)=O (centres undefined)"
  label class: "true (1)"
- molecule: "Cn1c(=O)c2[nH]c(N/N=C3/SCC(=O)N3Cc3ccccc3)nc2n(C)c1=O"
  label class: "true (1)"
- molecule: "COc1ccc(CC2C(=O)NC(C)C(=O)N(C)C3Cc4ccc(cc4)Oc4cc(ccc4O)CC(C(=O)NC(C)C(=O)NC(C)C(=O)N2C)N(C)C3=O)cc1 (centres undefined)"
  label class: "false (0)"
